target: Human recombinant eIF4E protein (Homo sapiens, UniProt P06730); construct: V28-V217; made in house; host or cells: Escherichia coli BL21 (DE3); experiment: Surface plasmon resonance binding of stapled-peptides to immobilized eIF4E; details: SPR; mean ± SEM from at-least two independent experiments; SEM
Sequence (P06730 28-217): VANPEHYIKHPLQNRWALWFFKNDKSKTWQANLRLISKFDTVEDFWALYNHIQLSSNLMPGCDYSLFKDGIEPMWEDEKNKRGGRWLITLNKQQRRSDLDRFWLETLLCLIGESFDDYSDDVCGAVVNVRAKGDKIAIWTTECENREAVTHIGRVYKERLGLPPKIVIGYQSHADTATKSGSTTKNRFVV
Numbered stars: 1 amine (or outer) side, 2 acyl side, 3 side chain; on linkers, the order of the positions; unused ones are H or OH. Bridge positions count the residues as written; N and C are the ends. Square brackets hold non-standard residues; d marks the D form. Peptide text beside a SMILES is read from it. ξ: configuration not given here. ξαMeNle(6-ylidene) = CC(CCCC=[*:3])(N[*:1])C(=O)[*:2]; S5 = C=CCCC[C@](C)(N)C(=O)O
Readout: RT, Residence Time measured as 1/koff (s)
Your answer is read as s, so omit the unit and give the number.

These solved cases illustrate the format of a correct answer.
Molecule | RT, Residence Time measured as 1/koff / s
CC(=O)N[C@@H](CCCCN)C(=O)N[C@@H](CCCCN)C(=O)N[C@@H](CCCNC(=N)N)C(=O)N[C@@H](Cc1ccc(O)cc1)C(=O)N[C@@H](CO)C(=O)N[C@@H](CCCNC(=N)N)C(=O)N[C@@]1(C)CCCC=CCCC[C@@](C)(C(=O)N[C@@H](Cc2ccccc2)C(=O)N[C@@H](CCCNC(=N)N)C(=O)N[C@@H](CCCNC(=N)N)C(=O)N[C@@H](CCCNC(=N)N)C(N)=O)NC(=O)[C@H](CC(C)C)NC(=O)[C@H](CC(C)C)NC(=O)[C@H](CCC(N)=O)NC1=O [sTIP-09] (Ac-KKRYSR[S5]QLL[S5]FRRR-NH2; staple 7-11) | 68.8
CC(=O)N[C@@H](CCCCN)C(=O)N[C@@H](CCCCN)C(=O)N[C@@H](CCCNC(=N)N)C(=O)N[C@@H](Cc1ccc(O)cc1)C(=O)N[C@@H](CO)C(=O)N[C@@H](CCCNC(=N)N)C(=O)N[C@@]1(C)CCCC=CCCC[C@@](C)(C(=O)N[C@@H](Cc2ccccc2)C(=O)N[C@@H](Cc2c[nH]c3ccccc23)C(N)=O)NC(=O)[C@H](CC(C)C)NC(=O)[C@H](CC(C)C)NC(=O)[C@H](CCC(N)=O)NC1=O [sTIP-07] (Ac-KKRYSR[S5]QLL[S5]FW-NH2; staple 7-11) | 36.3

q: Param readout= RT, Residence Time measured as 1/koff; system= Human recombinant eIF4E protein (Homo sapiens, UniProt P06730); entry= CC(=O)N[C@@H](CCCNC(=N)N)C(=O)N[C@@H](Cc1ccc(O)cc1)C(=O)N[C@@H](CO)C(=O)N[C@@H](CCCNC(=N)N)C(=O)NC1(C)CCCC=CCCCC(C)(C(=O)N[C@@H](Cc2ccccc2)C(N)=O)NC(=O)[C@H](CC(C)C)NC(=O)[C@H](CC(C)C)NC(=O)[C@H](CCC(N)=O)NC1=O (stereo partly drawn) [sTIP-12] (Ac-RYSR[ξαMeNle(6-ylidene)]QLL[ξαMeNle(6-ylidene)]F-NH2; staple 5-9) ; returns value.
a: 7.1
